Tested on: K4 kissing-loop RNA reporter;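 also: bound reporter read as fluorescence of individual clusters on recovered sequencing chips by microscopy, with normalized cluster intensities fitted with a binding model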
Assay: apparent KD of K4 kissing-loop reporter; higher = weaker reporter binding
Conditions: Eterna round: R107; input ligand: FMN 200 uM
Quick reference for apparent KD of K4 kissing-loop reporter among some sequences
Quick note: number first, unit second.

Recorded apparent KD of K4 kissing-loop reporter, per entry:
# item.sequence, target.or.test.system, apparent KD of K4 kissing-loop reporter
records = [
    ("UUUCCAGAUAAGUGGGAACGCUCCAUAACAGAGGAUAUCAGAGCGCUGAGAAGGCUGUUUUACAGUGAUGUUGUAAGUGUGGAGC [#10 K4 FMN A Same State]", "K4 kissing-loop RNA reporter", "158 nM"),
    ("GGGUGAGCGCGAAGGAGCGCCCUGACAGGUUGCUGCCGUGGGCAGUGAUGUUGCUCAGUCCGGCAGGUAGGUCGCGUGCUCACCC", "K4 kissing-loop RNA reporter", "187 nM"),
    ("UGAUAGGACAGAAGGAGCGGAAGUGAUGUUUCCUAAAGGAUAAAGGUGUCAAAGACACCCUUCCAGGUAGGUCGCUGUCCUAUCU [ArgBX 16 #Palindromic #SwitchBubble #StaticStem]", "K4 kissing-loop RNA reporter", "549 nM"),
    ("UAUAGAAACGUCCUAUCAAUAAAAUGGGAAGGAGCGAGGAAGAACUCAGGUAGGUCGCCCAAUAACCUUAGUGAUGUUAAGGAAA [Version 1]", "K4 kissing-loop RNA reporter", "126 nM"),
    ("UUAGAGAUCUCAGGAUAUGAGUGAUGUUGAUAUCAAGAUCUGAGAUAGAAUUCUAUCUCAGAUCAAUCAGAAGGGAGAUCUCAUU [AK1.3 Exc FMN B]", "K4 kissing-loop RNA reporter", "172 nM"),
]

State, in one line, measured apparent KD of K4 kissing-loop reporter of UGUAUGUGAUUUGAUACCAGACCAGCUGGUGUUUCAAGAGUGAUGUUCUUGUAGGUUUGGGUCCCUUGGCAGCAAAUCGCAUACU [KL-SSTheoB15]
159 nM

Quote apparent KD of K4 kissing-loop reporter reported for AGCGUCUGAAGAGGAUAUGACCAGUGAUGUUGGUUACUACCUCAAAUUAGUGUCUCGUCAAAAUCGUCAGAAGGCUUCGACGAGC [#09 K4 FMN B Exclusion] please.
122 nM

Read the entry GUGCGCGGUGCGGCCGCCACUCGGAUGCGAGUGAUGUUCGCGGGACGGACGCAAGUCCGUCAUUCGAGGACCGGGCAUGGCUGUA [#2 Same State - Tryptophan B Attempt #5 (HarryS)] and write its reported apparent KD of K4 kissing-loop reporter.
336 nM

Using known records, supply apparent KD of K4 kissing-loop reporter for GCCGUACGCAUGGAUACCAGAGAUGUUAAUCUCGAUGCCAGUGAUGUUGGCUUUAGCAUACUCCCUUGGCAGCCAUGCGUACGGC
312 nM

Give me measured apparent KD of K4 kissing-loop reporter, please, for this sequence: GUGUAACGAGGAAACCUCGUUACACCCUCACGAGGACCGGUACGGCCGCCACUCGAGAGCUCGUGAGGAGUGAUGUUCCUCGUGA
695 nM

Look up and report measured apparent KD of K4 kissing-loop reporter for this entry: GGCAGUGAUGUUGCCAGUGGCAGAUGCGAAGGAGCGUGGUGAGACACAGGUAGGUCGCGCAUUGAAAUUGCUGUCACUAAAAUGC [#3]
338 nM

Find the measured apparent KD of K4 kissing-loop reporter of CGUACGGUUUCUUUCUUUCCGUACGAGUGCCGAGGACCGGUACGGCCGCCACUCGCUACAGCCUAGUGAUGUUAGGCGAUUCUUU and report it.
129 nM
